Origin of values: paper PMC10663500

- assay.system: T1, mouse programmed cell death protein 1 Fc fusion protein (mPD-1-Fc), mPD-1 C60S (aa 25-167) (Mus musculus, UniProt Q02242, stabilised)
- T1 construct: not cleaved; source: Expi293F, purified (Protein A, SEC; dimeric fraction); not shown: Fc (human), C-terminal, kept
- assay: SPR; Carterra LSA; Fab from the ammonium sulfate precipitate of the culture supernatant immobilised on a NiHC200M chip; hPD-1 (1-1024 nM) or mPD-1-Fc (4-1024 nM) as analyte, fourfold dilution series, no regeneration; HBS-EP pH 7.4, 25 °C; medians over the spots of a construct, KD = koff/kon
- condition.set: one partner purified
pKd: −log10 of the molar value.
experimental.endpoint: pKd

toripalimab Fab L.V99I (Fab, V domains shown, as the heavy chain of Sm3; light chain of Sm3 with this change; numbers count from the chain's first residue; source: Brevibacillus, culture supernatant (ammonium sulfate precipitate); not shown: 6xHis, C-terminal, kept; 6xHN, C-terminal, kept) VH: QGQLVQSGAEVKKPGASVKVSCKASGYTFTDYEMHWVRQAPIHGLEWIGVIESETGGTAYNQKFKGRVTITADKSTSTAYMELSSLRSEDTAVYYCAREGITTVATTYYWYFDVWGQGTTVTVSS VL: DVVMTQSPLSLPVTLGQPASISCRSSQSIVHSNGNTYLEWYLQKPGQSPQLLIYKVSNRFSGVPDRFSGSGSGTDFTLKISRVEAEDVGVYYCFQGSHIPLTFGQGTKLEIK; 6.54
toripalimab Fab H.T107A (Fab, V domains shown, heavy chain of Sm3 with this change; numbers count from the chain's first residue; as the light chain of Sm3; source: Brevibacillus, culture supernatant (ammonium sulfate precipitate); not shown: 6xHis, C-terminal, kept; 6xHN, C-terminal, kept) VH: QGQLVQSGAEVKKPGASVKVSCKASGYTFTDYEMHWVRQAPIHGLEWIGVIESETGGTAYNQKFKGRVTITADKSTSTAYMELSSLRSEDTAVYYCAREGITTVATAYYWYFDVWGQGTTVTVSS VL: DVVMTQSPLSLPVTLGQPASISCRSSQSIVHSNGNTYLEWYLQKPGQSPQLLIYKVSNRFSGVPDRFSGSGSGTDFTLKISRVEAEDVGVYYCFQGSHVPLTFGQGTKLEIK; 6.63
toripalimab Fab L.S25A (Fab, V domains shown, as the heavy chain of Sm3; light chain of Sm3 with this change; numbers count from the chain's first residue; source: Brevibacillus, culture supernatant (ammonium sulfate precipitate); not shown: 6xHis, C-terminal, kept; 6xHN, C-terminal, kept) VH: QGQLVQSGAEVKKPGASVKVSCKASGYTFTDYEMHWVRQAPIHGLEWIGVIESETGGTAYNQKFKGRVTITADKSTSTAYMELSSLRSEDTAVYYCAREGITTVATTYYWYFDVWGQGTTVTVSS VL: DVVMTQSPLSLPVTLGQPASISCRASQSIVHSNGNTYLEWYLQKPGQSPQLLIYKVSNRFSGVPDRFSGSGSGTDFTLKISRVEAEDVGVYYCFQGSHVPLTFGQGTKLEIK; 7.19
